Listing: pest or weed control at 500 g/ha of selected compounds
# Test system: sicklepod (Cassia obtusifolia, CASOB)
# testDetails: Pre-emerge greenhouse herbicide test, phytotoxicity rating
# Assay type: in vivo
# statedConditions: Senna obtusifolia, pre-emergence, 336 h, Rate 500 g al/ha, 14 days after application, rating scale 0-100
# Procedure: A standard greenhouse herbicide activity screening system was used to evaluate the herbicidal efficacy and crop safety of these test compounds. […] At 14 days after application of the test materials, phytotoxicity ratings were recorded. […]
Note: unit % is implicit; provide only the numeric part.

In the examples that follow, each entry is paired with its recorded pest or weed control at 500 g/ha.
> print(dat)
                                   compound  datavalue
1  O=c1n(-c2cc(Oc3ncccc3C(F)(F)F)c(Cl)cc2F)c(=S)n2n1CCCC2 [Compound 8-18]         40
2  Nn1c(C(F)(F)F)cc(=O)n(-c2cc(Oc3cc([N+](=O)[O-])cc(C(F)(F)F)c3)c(Cl)cc2F)c1=O [Compound 9-23]         10
3  Nn1c(C(F)(F)F)cc(=O)n(-c2cc(Oc3cc(C(F)(F)F)ccn3)c(Cl)cc2F)c1=O [Compound 9-8]         90
4  Nn1c(C(F)(F)F)cc(=O)n(-c2cc(Oc3ccc(Br)cn3)c(Cl)cc2F)c1=O [Compound 9-2]         50

Now let's try a different one.
Challenge: # pest or weed control at 500 g/ha lookup, item Cc1nsc(Oc2cc(-n3c(=O)cc(C(F)(F)F)n(N)c3=O)c(F)cc2Cl)c1[N+](=O)[O-] [Compound 9-14]
Response given: 90

* * *

# Test system: green foxtail (Setaria viridis, SETVI)
# testDetails: Pre-emerge greenhouse herbicide test, phytotoxicity rating
# Format: in vivo
# statedConditions: Rate 125 g al/ha, 14 days after application, rating scale 0-100
Listing: SETVI phytotoxicity rating of selected molecules
Answer with a number only.

> print(dat)
                                   molecule  datavalue
1  Nn1c(C(F)(F)F)cc(=O)n(-c2cc(Oc3cccc(F)n3)c(Cl)cc2F)c1=O [Compound 9-4]        100

Challenge: Hello, I am looking for reported SETVI phytotoxicity rating with green foxtail (Setaria viridis, SETVI) for CCOC(=O)C(C)Oc1ccc(Oc2cc(-n3c(=O)n4n(c3=O)CCCC4)c(F)cc2Cl)c([N+](=O)[O-])c1 (stereo not drawn) [Compound 8-41] . Could you help?
Response given: 10

Challenge: Hello, I am looking for reported SETVI phytotoxicity rating with green foxtail (Setaria viridis, SETVI) for N#Cc1cccnc1Oc1cc(-n2c(=O)n3n(c2=S)CCCC3)c(F)cc1Cl [Compound 8-20] . Could you help?
Response given: 95

Challenge: Hello, I am looking for reported SETVI phytotoxicity rating with green foxtail (Setaria viridis, SETVI) for O=c1n(-c2cc(Oc3ccc([N+](=O)[O-])cn3)c(Cl)cc2F)c(=S)n2n1CCCC2 [Compound 8-23] . Could you help?
Response given: 10

Challenge: Hello, I am looking for reported SETVI phytotoxicity rating with green foxtail (Setaria viridis, SETVI) for O=c1n(-c2cc(Oc3nc(F)c(F)cc3F)c(Cl)cc2F)c(=S)n2n1CCCC2 [Compound 8-28] . Could you help?
Response given: 100

Challenge: Hello, I am looking for reported SETVI phytotoxicity rating with green foxtail (Setaria viridis, SETVI) for CCOC(=O)C(C)Oc1cc([N+](=O)[O-])c(Oc2cc(-n3c(=O)n4n(c3=S)CCCC4)c(F)cc2Cl)cc1Cl (stereo not drawn) [Compound 8-38] . Could you help?
Response given: 0

Challenge: Hello, I am looking for reported SETVI phytotoxicity rating with green foxtail (Setaria viridis, SETVI) for O=c1n(-c2cc(Oc3nccc(C(F)(F)F)n3)c(Cl)cc2F)c(=S)n2n1CCCC2 [Compound 8-30] . Could you help?
Response given: 100

Challenge: Hello, I am looking for reported SETVI phytotoxicity rating with green foxtail (Setaria viridis, SETVI) for N#Cc1ccc(Oc2cc(-n3c(=O)n4n(c3=S)CCCC4)c(F)cc2Cl)nc1 [Compound 8-22] . Could you help?
Response given: 40

Challenge: Hello, I am looking for reported SETVI phytotoxicity rating with green foxtail (Setaria viridis, SETVI) for CS(=O)(=O)c1cccnc1Oc1cc(-n2c(=O)n3n(c2=S)CCCC3)c(F)cc1Cl [Compound 8-21] . Could you help?
Response given: 99

Challenge: Hello, I am looking for reported SETVI phytotoxicity rating with green foxtail (Setaria viridis, SETVI) for Cc1nsc(Oc2cc(-n3c(=O)n4n(c3=S)CCCC4)c(F)cc2Cl)c1[N+](=O)[O-] [Compound 8-35] . Could you help?
Response given: 90

Challenge: Hello, I am looking for reported SETVI phytotoxicity rating with green foxtail (Setaria viridis, SETVI) for O=c1n(-c2cc(Oc3cccc(F)n3)c(Cl)cc2F)c(=S)n2n1CCCC2 [Compound 8-25] . Could you help?
Response given: 100

Challenge: Hello, I am looking for reported SETVI phytotoxicity rating with green foxtail (Setaria viridis, SETVI) for CSc1cccnc1Oc1cc(-n2c(=O)n3n(c2=S)CCCC3)c(F)cc1Cl [Compound 8-43] . Could you help?
Response given: 100
